testSystem: Amyloid-beta precursor protein (Homo sapiens)
Sequence (P05067 18-770 limits assumed): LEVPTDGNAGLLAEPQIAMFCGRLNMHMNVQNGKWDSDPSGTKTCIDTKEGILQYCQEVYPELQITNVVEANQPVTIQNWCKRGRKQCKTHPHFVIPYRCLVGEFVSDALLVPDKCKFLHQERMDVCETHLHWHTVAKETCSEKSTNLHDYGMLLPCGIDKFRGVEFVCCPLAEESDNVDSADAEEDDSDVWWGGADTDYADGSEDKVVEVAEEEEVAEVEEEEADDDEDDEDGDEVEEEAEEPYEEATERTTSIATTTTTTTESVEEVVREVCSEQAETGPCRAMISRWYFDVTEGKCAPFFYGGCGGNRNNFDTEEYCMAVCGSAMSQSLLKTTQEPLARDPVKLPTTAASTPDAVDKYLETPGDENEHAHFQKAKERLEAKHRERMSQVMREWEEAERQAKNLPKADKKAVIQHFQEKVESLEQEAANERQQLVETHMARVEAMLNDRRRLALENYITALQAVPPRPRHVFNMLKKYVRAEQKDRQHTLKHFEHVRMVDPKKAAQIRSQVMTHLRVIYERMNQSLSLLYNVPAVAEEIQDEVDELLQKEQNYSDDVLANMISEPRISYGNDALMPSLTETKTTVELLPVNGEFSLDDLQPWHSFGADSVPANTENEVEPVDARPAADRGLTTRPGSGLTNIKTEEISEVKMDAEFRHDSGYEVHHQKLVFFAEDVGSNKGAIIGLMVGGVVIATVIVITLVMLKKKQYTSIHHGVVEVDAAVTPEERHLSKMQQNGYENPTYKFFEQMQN
assayRemarks: In vitro reduction of Swedish NL mutant amyloid precursor protein activity expressed in CHO cells
Format: functional, cell-based
quantity: EC50 (nM)

compound	quantity	result
CCOC(=O)N1CCC(c2ccccc2OC)(S(=O)(=O)c2ccc(Cl)cc2)CC1	EC50	530

###

testSystem: Amyloid-beta precursor protein (Homo sapiens)
assayRemarks: In vitro elevation of beta C-terminal fragment (Ct-99) in CHO cells expressing mutant Swedish NL human APP
Assay type: functional, cell-based

compound	EC50 [µM]
CCOC(=O)N1CCC(c2ccccc2OC)(S(=O)(=O)c2ccc(Cl)cc2)CC1	0.64

Cited source: ChEMBL document CHEMBL1143507
